Values compiled from ChEMBL document CHEMBL2176867.

test_summary: Cytotoxicity against human H1299 cells after 3 days by MTS assay
Format: functional, cell-based
setup_conditions: NCI-H1299, 72 h
pIC50: −log10 of the molar value.
test_readout: pIC50

| query_smiles | test_readout | operator_symbol | recorded_result |
| --- | --- | --- | --- |
| COc1cc2c(cc1OC)[C@@H]1C(=O)c3ccc4c(c3O[C@@H]1CO2)CCC(C)(C)O4 | pIC50 | = | 6.85 |
| COc1cc2c(cc1OC)[C@@H]1C(=O)c3ccc(OCc4ccccc4)c(CC=C(C)C)c3O[C@@H]1CO2 | pIC50 | < | 3.30 |
| COc1ccc(CC(=O)c2ccc3c(c2)C=CC(C)(C)O3)cc1OC | pIC50 | = | 6.00 |
| CCO[C@@H]1c2ccc3c(c2O[C@@H]2COc4cc(OC)c(OC)cc4[C@H]12)C=CC(C)(C)O3 | pIC50 | = | 5.01 |

---

Reported pIC50 values for the following compounds.
test_summary: Cytotoxicity against human H1299 cells after 3 days by MTS assay
Type: functional, cell-based
setup_conditions: NCI-H1299, 72 h
pIC50: −log10 of the molar value.

| compound | operator_symbol | pIC50 |
| --- | --- | --- |
| COc1cc2c(cc1OC)C1=Cc3ccc4c(c3O[C@@H]1CO2)C=CC(C)(C)O4 | < | 3.30 |
| COc1cc2c(cc1OC)[C@@H]1[C@H](OC)c3ccc4c(c3O[C@@H]1CO2)C=CC(C)(C)O4 | = | 5.39 |
| CCCO[C@@H]1c2ccc3c(c2O[C@@H]2COc4cc(OC)c(OC)cc4[C@H]12)C=CC(C)(C)O3 | = | 4.98 |
| CC1(C)C=Cc2c(ccc3c2O[C@@H]2COc4cc(O)c(O)cc4[C@@H]2C3=O)O1 | = | 5.00 |
| CO/N=C1\c2ccc3c(c2O[C@@H]2COc4cc(OC)c(OC)cc4[C@H]12)C=CC(C)(C)O3 | = | 5.37 |
| COc1cc2c(cc1O)OC[C@H]1Oc3c(ccc4c3C=CC(C)(C)O4)C(=O)[C@@H]21 | = | 6.06 |
| COc1cc2c(cc1OC)[C@@H]1C(=O)c3ccc(O)c(CC=C(C)C)c3O[C@@H]1CO2 [ROTENONIC ACID] | = | 5.01 |
| COc1ccc(C2(C(=O)c3ccc4c(c3OC)C=CC(C)(C)O4)CC2)cc1OC | = | 3.99 |

---

Reported IC50 values for the following compounds.
test_summary: Cytotoxicity against human H1299 cells after 3 days by MTS assay
Format: functional, cell-based
setup_conditions: NCI-H1299, 72 h
test_readout: IC50 (µM)

| compound | test_readout | unit_string | operator_symbol | recorded_result |
| --- | --- | --- | --- | --- |
| COc1cc2c(cc1OC)[C@@H]1/C(=N/OCc3ccccc3)c3ccc4c(c3O[C@@H]1CO2)C=CC(C)(C)O4 | IC50 | µM | > | 500 |
| COc1cc2c(cc1OC)C(C(=O)c1ccc3c(c1)C=CC(C)(C)O3)CCO2 (racemic) | IC50 | µM | = | 3.8 |
| COc1cc2c(cc1OC)-c1c(oc3c4c(ccc3c1=O)OC(C)(C)C=C4)CO2 [DEHYDRODEGUELIN] | IC50 | µM | > | 500 |
| COc1cc2c(cc1O)[C@@H]1C(=O)c3ccc4c(c3O[C@@H]1CO2)C=CC(C)(C)O4 | IC50 | µM | = | 0.97 |
| COc1ccc(C(C)(C)C(=O)c2ccc3c(c2OC)C=CC(C)(C)O3)cc1OC | IC50 | µM | = | 3.2 |
| COc1ccc([C@H](C)C(=O)c2ccc3c(c2OC)C=CC(C)(C)O3)cc1OC | IC50 | µM | = | 0.49 |
| COc1ccc([C@@H](C)C(=O)c2ccc3c(c2OC)C=CC(C)(C)O3)cc1OC | IC50 | µM | = | 1.3 |
| COc1cc2c(cc1OC)[C@@H]1C(=O)c3ccc4c(c3O[C@@H]1CO2)C(O)C(O)C(C)(C)O4 (stereo partly drawn) | IC50 | µM | > | 500 |

---

test_summary: Cytotoxicity against human H1299 cells after 3 days by MTS assay
Format: functional, cell-based
setup_conditions: NCI-H1299, 72 h
pIC50: −log10 of the molar value.

| compound | operator_symbol | pIC50 |
| --- | --- | --- |
| COc1cc2c(cc1OC)[C@@H]1C(=O)c3ccc(OC(C)=O)c(CC=C(C)C)c3O[C@@H]1CO2 | < | 3.30 |
| C=CCOc1ccc2c(c1CC=C(C)C)O[C@@H]1COc3cc(OC)c(OC)cc3[C@@H]1C2=O | < | 3.30 |
| COc1cc2c(cc1OC)[C@@H]1[C@H](OC(C)=O)c3ccc4c(c3O[C@@H]1CO2)C=CC(C)(C)O4 | = | 6.17 |
| COc1cc2c(cc1OC)[C@@H]1[C@H](OC(N)=O)c3ccc4c(c3O[C@@H]1CO2)C=CC(C)(C)O4 | = | 6.96 |
| COc1cc2c(cc1OC)[C@@H]1[C@H](O)c3ccc4c(c3O[C@@H]1CO2)C=CC(C)(C)O4 | = | 8.00 |
| COc1ccc(C2COc3c(ccc4c3C=CC(C)(C)O4)C2=O)cc1OC (racemic) | = | 5.35 |
| COc1cc2c(cc1OC)[C@@H]1[C@H](OCc3ccccc3)c3ccc4c(c3O[C@@H]1CO2)C=CC(C)(C)O4 | < | 3.30 |
| COc1ccc(C(C)C(=O)c2ccc3c(c2OC)C=CC(C)(C)O3)cc1OC (racemic) | = | 6.14 |
| COc1cc2c(cc1OC)[C@@H]1C(=O)c3ccc4c(c3O[C@@H]1CO2)C=CC(C)(C)O4 [DEGUELIN] | = | 6.96 |
| COc1cc2c(cc1OC)[C@@H]1/C(=N/O)c3ccc4c(c3O[C@@H]1CO2)C=CC(C)(C)O4 | = | 6.52 |
| COc1cc2c(cc1OC)[C@@H]1C(=O)c3ccc(OC)c(CC=C(C)C)c3O[C@@H]1CO2 [ROTENONIC ACID, METHYL ETHER] | = | 5.28 |
| COc1ccc(CC(=O)c2ccc3c(c2OC)C=CC(C)(C)O3)cc1OC | = | 6.85 |
| COc1cc2c(cc1OC)[C@@H]1Cc3ccc4c(c3O[C@@H]1CO2)C=CC(C)(C)O4 | = | 5.38 |
